Where these numbers come from: the supplement of paper PMC11208160

Assay: recombinant UMI read abundance after kanamycin selection (control-corrected) (log10(CPM+1)); higher = more efficient recombination; extreme values may be limits of the assay; sequences stand for … in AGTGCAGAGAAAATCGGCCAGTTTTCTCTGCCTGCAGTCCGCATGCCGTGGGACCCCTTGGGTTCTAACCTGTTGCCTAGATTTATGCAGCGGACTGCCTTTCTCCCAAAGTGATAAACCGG…AGGTTGGTTTCACT; site = the 11-nt donor;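 further: IS621 bridge recombinase in Escherichia coli cells against a fixed T5 target plasmid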
endpoint: recombinant UMI read abundance (log10)

> print(dat)
                                 biosequence                                endpoint  datavalue
 1  GCAGAAACATGGACCGGTTTTCCCGGTAATCCGTATTTGGC (site GCAGAAACTGC)  recombinant UMI read abundance (log10)       2.87
 2  CCGTAGCCATGGACCGGTTTTCCCGGTAATCCGTATTTGCC (site CCGTAGCCTGG)  recombinant UMI read abundance (log10)          0
 3  TACTTGGCATGGACCGGTTTTCCCGGTAATCCGTATTTGTG (site TAATTGGCTCA)  recombinant UMI read abundance (log10)     0.0141
 4  CACCACACATGGACCGGTTTTCCCGGTAATCCGTATTTGTA (site CACCACACTTA)  recombinant UMI read abundance (log10)       2.13
 5  GAAGTGGCATGGACCGGTTTTCCCGGTAATCCGTATTTGGT (site GAAGTGGCTAC)  recombinant UMI read abundance (log10)      0.489
 6  TCGCTAGCATGGACCGGTTTTCCCGGTAATCCGTATTTGAA (site TAGCTAGCTTT)  recombinant UMI read abundance (log10)    0.00313
 7  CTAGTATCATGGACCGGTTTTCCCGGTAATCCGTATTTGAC (site TTAGTATCTCT)  recombinant UMI read abundance (log10)          0
 8  ACGTTTACATGGACCGGTTTTCCCGGTAATCCGTATTTGCT (site GCGTTTACTAG)  recombinant UMI read abundance (log10)      0.666
 9  TCGAAGTCATGGACCGGTTTTCCCGGTAATCCGTATTTGCG (site TCGAAGTCTCG)  recombinant UMI read abundance (log10)        1.9
10  CGTTAGCCATGGACCGGTTTTCCCGGTAATCCGTATTTGAG (site CGTTAGGCTCT)  recombinant UMI read abundance (log10)    0.00758
11  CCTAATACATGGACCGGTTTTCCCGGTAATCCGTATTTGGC (site CCTAATACTCC)  recombinant UMI read abundance (log10)    0.00819
12  CTGCTGACATGGACCGGTTTTCCCGGTAATCCGTATTTGAT (site CTGCTGACTAT)  recombinant UMI read abundance (log10)       2.13
13  CTAGTCTCATGGACCGGTTTTCCCGGTAATCCGTATTTGAC (site CTAGTATCTGT)  recombinant UMI read abundance (log10)      0.627
14  CGTAAAGCATGGACCGGTTTTCCCGGTAATCCGTATTTGAT (site CGTAAAGCTAT)  recombinant UMI read abundance (log10)       2.44
15  GCTTTCCCATGGACCGGTTTTCCCGGTAATCCGTATTTGAT (site GCTTCCCCTAT)  recombinant UMI read abundance (log10)    0.00917
16  AATGTAACATGGACCGGTTTTCCCGGTAATCCGTATTTGCA (site AATGTAACTCG)  recombinant UMI read abundance (log10)     0.0207
17  ATACAAGCATGGACCGGTTTTCCCGGTAATCCGTATTTGAG (site ATTCAAGCTCT)  recombinant UMI read abundance (log10)      0.673
18  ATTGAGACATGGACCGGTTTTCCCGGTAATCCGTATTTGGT (site ATTGAGACTTC)  recombinant UMI read abundance (log10)     0.0155
